B1: OR4K15 (parent)
chain: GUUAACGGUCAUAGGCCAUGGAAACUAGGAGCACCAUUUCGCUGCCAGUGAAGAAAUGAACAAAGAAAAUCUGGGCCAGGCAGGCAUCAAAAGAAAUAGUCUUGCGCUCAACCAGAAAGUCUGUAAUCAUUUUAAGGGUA

# Variants of: B1
# testDescription: self-cleavage, relative activity (ratio to wild type); higher = more cleavage; in vitro, sequencing; the parent is a self-cleaving ribozyme
assayEndpoint: self-cleavage
Number, no unit, nothing else.

In: Given the variant A23U A140G , what is its reported self-cleavage?
Out: 1.38

In: Please give the measured self-cleavage for this variant: U9C G136A
Out: 2.13

In: // query self-cleavage value for entry C45A A134G
Out: 1.72

In: Returns the measured self-cleavage for the input variant. Input: A36G A86U
Out: 2.91
